Target: human PD-1 / PD-L1-Ig binding on Jurkat cell line over-expressing human PD-1 (Jurkat-PD-1) (Homo sapiens, UniProt Q15116)
Construct: expressed in transfected cells; host or cells: Jurkat
Sequence (Q15116 25-288): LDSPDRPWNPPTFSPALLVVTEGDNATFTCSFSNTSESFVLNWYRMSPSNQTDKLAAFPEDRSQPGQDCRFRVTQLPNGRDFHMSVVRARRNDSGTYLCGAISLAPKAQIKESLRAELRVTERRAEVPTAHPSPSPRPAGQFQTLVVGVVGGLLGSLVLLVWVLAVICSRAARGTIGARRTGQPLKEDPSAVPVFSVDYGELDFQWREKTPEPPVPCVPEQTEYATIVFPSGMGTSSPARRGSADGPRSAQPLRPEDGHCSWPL
Test: Jurkat-PD-1 Cell Binding High-Content Screening Assay (CBA)
Type: cell-based
Conditions: Jurkat-PD-1 cells, PE-labeled PD-L1-Ig 20 nM final; read-out: Jurkat HPD1_PDL1 IC50
Where a SMILES comes first, the peptide text is derived from it. Bridges are numbered along the chain shown (N, C = ends). [ ]: non-standard residue; d: D form. Bip = N[C@@H](Cc1ccc(-c2ccccc2)cc1)C(=O)O; Phe(3-Me) = Cc1cccc(C[C@H](N)C(=O)O)c1; h4Pal = N[C@@H](CCc1ccncc1)C(=O)O; Nle = CCCC[C@H](N)C(=O)O; Orn = NCCC[C@H](N)C(=O)O; Dab = NCC[C@H](N)C(=O)O; Dap = NC[C@H](N)C(=O)O
Please provide measured pIC50 for the entries that follow.
Remember, pIC50 is on a log scale: it is -log10 of the molar concentration.

Entry CC[C@H](C)[C@@H]1NC(=O)[C@H](Cc2ccc(-c3ccccc3)cc2)NC(=O)[C@H](C(C)C)NC(=O)[C@H](Cc2c[nH]c3ccccc23)NC(=O)[C@H](CC(=O)O)NC(=O)[C@H](Cc2ccc(OCC(=O)O)cc2)NC(=O)[C@H](CN)NC(=O)CSC[C@@H](C(=O)N[C@@H](C)C(N)=O)NC(=O)[C@H]([C@@H](C)O)NC(=O)[C@H](C(C)C)NC(=O)[C@H](CC2CCCCC2)NC(=O)[C@H](Cc2cnc[nH]2)NC(=O)[C@@H](CC(C)C)NC(=O)[C@H](CCCN)NC1=O [Compound 1589] , pIC50 reported as 7.79

# pIC50 of CC(C)C[C@H]1NC(=O)[C@H](CCCN)NC(=O)[C@H](CCCNC(N)=O)NC(=O)[C@H](Cc2ccc(-c3ccccc3)cc2)NC(=O)[C@H](C(C)C)NC(=O)[C@H](Cc2c[nH]c3ccccc23)NC(=O)[C@H](CC(=O)O)NC(=O)[C@H](Cc2ccc(OCC(=O)O)cc2)NC(=O)[C@H](CN)NC(=O)CSC[C@@H](C(=O)N[C@@H](C)C(N)=O)NC(=O)[C@H]([C@@H](C)O)NC(=O)[C@H](C(C)C)NC(=O)[C@H](Cc2cccnc2)NC(=O)[C@H](CCN)NC1=O [Compound 1350] = 6.79

According to the records, this molecule CC(C)C[C@H]1NC(=O)[C@H](CCCN)NC(=O)[C@H](C(C)C)NC(=O)[C@H](Cc2ccc(-c3ccccc3)cc2)NC(=O)[C@H](C(C)C)NC(=O)[C@H](Cc2c[nH]c3ccccc23)NC(=O)[C@H](CC(=O)O)NC(=O)[C@H](Cc2ccncc2)NC(=O)[C@H](Cc2ccc(OCC(=O)O)cc2)NC(=O)CSC[C@@H](C(=O)N[C@@H](C)C(N)=O)NC(=O)[C@H]([C@@H](C)O)NC(=O)[C@H](C(C)C)NC(=O)[C@H](CC2CCCCC2)NC(=O)[C@H](CCN)NC1=O [Compound 1331] displays pIC50 of 8.22

Entry CCCC[C@@H]1NC(=O)[C@H](CCN)NC(=O)[C@@H](CC(C)C)NC(=O)[C@H](CCCN)NC(=O)[C@H](C(C)C)NC(=O)[C@H](Cc2ccc(-c3ccccc3)cc2)NC(=O)[C@H](C(C)C)NC(=O)[C@H](Cc2c[nH]c3ccccc23)NC(=O)[C@H](CC(=O)O)NC(=O)[C@H](Cc2ccc(O)cc2)NC(=O)[C@H](CN)NC(=O)CSC[C@@H](C(=O)N[C@@H](C)C(N)=O)NC(=O)[C@H]([C@@H](C)O)NC(=O)[C@H](C(C)C)NC1=O [Compound 1169] ({CH2CO}-[Dap]YDWV[Bip]V[Orn][dL][Dab][Nle]VTCA-NH2; thioether N-14) , pIC50 reported as 7.68

# molecule CC(C)C[C@H]1NC(=O)[C@H](CCCN)NC(=O)[C@H](C(C)C)NC(=O)[C@H](Cc2ccc(-c3ccccc3)cc2)NC(=O)[C@H](C(C)C)NC(=O)[C@H](Cc2cccc(Cl)c2)NC(=O)[C@H](CC(=O)O)NC(=O)[C@H](Cc2ccc(C(=O)O)cc2)NC(=O)[C@H](Cc2ccc(OCC(=O)O)cc2)NC(=O)CSC[C@@H](C(=O)N[C@@H](C)C(N)=O)NC(=O)[C@H]([C@@H](C)O)NC(=O)[C@H](C(C)C)NC(=O)[C@H](CC2CCCCC2)NC(=O)[C@H](CCN)NC1=O [Compound 1569] ; its pIC50 = 7.79

Entry CC(C)C[C@@H]1NC(=O)[C@H](CCCCN)NC(=O)[C@@H](CC(C)C)NC(=O)[C@H](CCN)NC(=O)[C@H](Cc2cnc[nH]2)NC(=O)[C@H](Cc2ccc(-c3ccccc3)cc2)NC(=O)[C@H](C(C)C)NC(=O)[C@H](Cc2c[nH]c3ccccc23)NC(=O)[C@H](CC(=O)O)NC(=O)[C@H](Cc2ccc(O)cc2)NC(=O)[C@H](CC(N)=O)NC(=O)CSC[C@@H](C(=O)NCC(N)=O)NC(=O)[C@H]([C@@H](C)O)NC(=O)[C@H](C(C)C)NC1=O [Compound 1140] ({CH2CO}-NYDWV[Bip]H[Dab][dL]KLVTCG-NH2; thioether N-14) , pIC50 reported as 7.24

For this molecule ( Cc1cccc(C[C@@H]2NC(=O)[C@H](CC(=O)O)NC(=O)[C@H](CCc3ccncc3)NC(=O)[C@H](CN)NC(=O)CSC[C@@H](C(=O)N[C@@H](C)C(N)=O)NC(=O)[C@H]([C@@H](C)O)NC(=O)[C@H](C(C)C)NC(=O)[C@H](CC(C)C)NC(=O)[C@H](CCN)NC(=O)[C@@H](CC(C)C)NC(=O)[C@H](CCCN)NC(=O)[C@H](C(C)C)NC(=O)[C@H](Cc3ccc(-c4ccccc4)cc3)NC(=O)[C@H](C(C)C)NC2=O)c1 [Compound 1253] ({CH2CO}-[Dap][h4Pal]D[Phe(3-Me)]V[Bip]V[Orn][dL][Dab]LVTCA-NH2; thioether N-14) ), measured pIC50 is 8.17

Recorded pIC50 (molecule CC(C)C[C@@H]1NC(=O)[C@H](Cc2c[nH]c3ccccc23)NC(=O)[C@H](CC(=O)O)NC(=O)[C@H](Cc2ccc(O)cc2)NC(=O)[C@H](Cc2ccccc2)NC(=O)CSC[C@@H](C(=O)NCC(N)=O)NC(=O)[C@H]([C@@H](C)O)NC(=O)[C@H](C(C)C)NC(=O)[C@H](CC(C)C)NC(=O)[C@H](CC(N)=O)NC(=O)[C@@H](CC(C)C)NC(=O)[C@H](CN)NC(=O)[C@H](C(C)C)NC(=O)[C@H](Cc2ccc(-c3ccccc3)cc2)NC1=O [Compound 1070] ({CH2CO}-FYDWL[Bip]V[Dap][dL]NLVTCG-NH2; thioether N-14) ): 7.41

---

Target: human PD-1 / PD-L1-Ig binding on Jurkat cell line over-expressing human PD-1 (Jurkat-PD-1) (Homo sapiens, UniProt Q15116)
Construct: expressed in transfected cells; host or cells: Jurkat
Assay: Jurkat-PD-1 Cell Binding High-Content Screening Assay (CBA)
Type: cell-based
Conditions: Jurkat-PD-1 cells, PE-labeled PD-L1-Ig 20 nM final; read-out: Jurkat HPD1_PDL1 IC50
parameterMeasured: pIC50
Note on units: pIC50 is unitless, being -log10 of a concentration expressed in mol/L.

Noted for `CC(C)C[C@H]1NC(=O)[C@H](CCCN)NC(=O)[C@H](CCCNC(N)=O)NC(=O)[C@H](Cc2ccc(-c3ccccc3)cc2)NC(=O)[C@H](C(C)C)NC(=O)[C@H](Cc2c[nH]c3ccccc23)NC(=O)[C@H](CC(=O)O)NC(=O)[C@H](Cc2ccc3ncccc3c2)NC(=O)[C@H](CN)NC(=O)CSC[C@@H](C(=O)N[C@@H](C)C(N)=O)NC(=O)[C@H]([C@@H](C)O)NC(=O)[C@H](C(C)C)NC(=O)[C@H](CC2CCCCC2)NC(=O)[C@H](CCN)NC1=O` : its pIC50 reads 8.05

---

Biological target: human PD-1 / PD-L1-Ig binding on Jurkat cell line over-expressing human PD-1 (Jurkat-PD-1) (Homo sapiens, UniProt Q15116)
Construct: expressed in transfected cells; host or cells: Jurkat
Test: Jurkat-PD-1 Cell Binding High-Content Screening Assay (CBA)
Format: cell-based
Conditions: Jurkat-PD-1 cells, PE-labeled PD-L1-Ig 20 nM final; read-out: Jurkat HPD1_PDL1 IC50
Where a SMILES comes first, the peptide text is derived from it. Bridges are numbered along the chain shown (N, C = ends). [ ]: non-standard residue; d: D form. Bip = N[C@@H](Cc1ccc(-c2ccccc2)cc1)C(=O)O; Cit = NC(=O)NCCC[C@H](N)C(=O)O; Orn = NCCC[C@H](N)C(=O)O; Dab = NCC[C@H](N)C(=O)O
parameterMeasured: IC50 (nM)
// note: answer is a bare numeric in nM

Lab note: CC(C)C[C@@H]1NC(=O)[C@H](CCN)NC(=O)[C@@H](CC(C)C)NC(=O)[C@H](CCCN)NC(=O)[C@H](CCCNC(N)=O)NC(=O)[C@H](Cc2ccc(-c3ccccc3)cc2)NC(=O)[C@H](C(C)C)NC(=O)[C@H](Cc2c[nH]c3ccccc23)NC(=O)[C@H](CC(=O)O)NC(=O)[C@H](Cc2ccc(O)cc2)NC(=O)[C@H](CC(N)=O)NC(=O)CSC[C@@H](C(=O)NCC(N)=O)NC(=O)[C@H](CO)NC(=O)[C@H](C(C)C)NC1=O [Compound 1112] ({CH2CO}-NYDWV[Bip][Cit][Orn][dL][Dab]LVSCG-NH2; thioether N-14) gave IC50 of 17.1

IC50 reading for `CC[C@H](C)[C@@H]1NC(=O)[C@H](Cc2ccc(-c3ccccc3)cc2)NC(=O)[C@H](C(C)C)NC(=O)[C@H](Cc2cccc(C)c2)NC(=O)[C@H](CC(=O)O)NC(=O)[C@H](Cc2ccncc2)NC(=O)[C@H](Cc2ccc(OCC(=O)O)cc2)NC(=O)CSC[C@@H](C(=O)N[C@@H](C)C(N)=O)NC(=O)[C@H]([C@@H](C)O)NC(=O)[C@H](C(C)C)NC(=O)[C@H](CC2CCCCC2)NC(=O)[C@H](CCN)NC(=O)[C@@H](CC(C)C)NC(=O)[C@H](CCCN)NC1=O` : 12.8

Consider `CC[C@H](C)[C@@H]1NC(=O)[C@H](Cc2ccc(-c3ccccc3)cc2)NC(=O)[C@H](C(C)C)NC(=O)[C@H](Cc2cccc(C)c2)NC(=O)[C@H](CC(=O)O)NC(=O)[C@H](Cc2ccncc2)NC(=O)[C@H](CN)NC(=O)CSC[C@@H](C(=O)N[C@@H](C)C(N)=O)NC(=O)[C@H]([C@@H](C)O)NC(=O)[C@H](C(C)C)NC(=O)[C@H](CC2CCCCC2)NC(=O)[C@H](CCN)NC(=O)[C@@H](CC(C)C)NC(=O)[C@H](CCCN)NC1=O` . Its measured IC50 is 16.2

Sure, the documented IC50 for CCC(C)[C@@H]1NC(=O)[C@H](Cc2ccc(-c3ccccc3)cc2)NC(=O)[C@H](C(C)C)NC(=O)[C@H](Cc2cccc(C)c2)NC(=O)[C@H](CC(=O)O)NC(=O)[C@H](Cc2ccc(-c3cccc(C(=O)O)c3)cc2)NC(=O)[C@H](Cc2ccncc2)NC(=O)CSC[C@@H](C(=O)N[C@@H](C)C(N)=O)NC(=O)[C@H]([C@@H](C)O)NC(=O)[C@H](C(C)C)NC(=O)[C@H](CC2CCCCC2)NC(=O)[C@H](CCN)NC(=O)[C@@H](CC(C)C)NC(=O)[C@H](CCCN)NC1=O (some centres unmarked) is 25.4

Lab note: `COc1cccc(C[C@@H]2NC(=O)[C@H](CC(=O)O)NC(=O)[C@H](Cc3ccc(O)cc3)NC(=O)[C@H](Cc3ccncc3)NC(=O)CSC[C@@H](C(=O)N[C@@H](C)C(N)=O)NC(=O)[C@H]([C@@H](C)O)NC(=O)[C@H](C(C)C)NC(=O)[C@H](CC3CCCCC3)NC(=O)[C@H](CCN)NC(=O)[C@@H](CC(C)C)NC(=O)[C@H](CCCN)NC(=O)[C@H](CCC(=O)O)NC(=O)[C@H](Cc3ccc(-c4ccccc4)cc3)NC(=O)[C@H](C(C)C)NC2=O)c1` gave IC50 of 27.7

The compound listed as `CC(C)C[C@H]1NC(=O)[C@H](CCCN)NC(=O)[C@H](CCN)NC(=O)[C@H](Cc2ccc(-c3ccccc3)cc2)NC(=O)[C@H](C(C)C)NC(=O)[C@H](Cc2c[nH]c3ccccc23)NC(=O)[C@H](CC(=O)O)NC(=O)[C@H](Cc2ccc(O)cc2)NC(=O)[C@H](CC(N)=O)NC(=O)CSC[C@@H](C(=O)N[C@@H](C)C(N)=O)NC(=O)[C@H]([C@@H](C)O)NC(=O)[C@H](C(C)C)NC(=O)[C@H](CC2CCCCC2)NC(=O)[C@H](CCN)NC1=O` has a reported IC50 of 33

Given item CC(C)C[C@@H]1NC(=O)[C@H](CCN)NC(=O)[C@@H](CC(C)C)NC(=O)[C@H](CCCCN)NC(=O)[C@H](CCCNC(N)=O)NC(=O)[C@H](Cc2ccc(-c3ccccc3)cc2)NC(=O)[C@H](C(C)C)NC(=O)[C@H](Cc2c[nH]c3ccccc23)NC(=O)[C@H](CC(=O)O)NC(=O)[C@H](Cc2ccc(O)cc2)NC(=O)[C@H](CC(N)=O)NC(=O)CSC[C@@H](C(=O)N[C@@H](C)C(N)=O)NC(=O)[C@H]([C@@H](C)O)NC(=O)[C@H](C(C)C)NC1=O [Compound 1019] ({CH2CO}-NYDWV[Bip][Cit]K[dL][Dab]LVTCA-NH2; thioether N-14) , the value recorded as its IC50 is 20.6

CC(C)C[C@H]1NC(=O)[C@H](CCCN)NC(=O)[C@H](C(C)C)NC(=O)[C@H](Cc2ccc(-c3ccccc3)cc2)NC(=O)[C@H](C(C)C)NC(=O)[C@H](Cc2c[nH]c3ccccc23)NC(=O)[C@H](CC(=O)O)NC(=O)[C@H](Cc2ccc(OCC(=O)O)cc2)NC(=O)[C@H](CCO)NC(=O)CSC[C@@H](C(=O)N[C@@H](C)C(N)=O)NC(=O)[C@H](C(C)O)NC(=O)[C@H](C(C)C)NC(=O)[C@H](CC2CCCCC2)NC(=O)[C@H](CCN)NC1=O (some centres unmarked) has a reported IC50 of 5.4
